These measurements were taken from patent US20030187007A1.

molecular target: CDK2 complexed with cyclin A (Homo sapiens); assay: Cyclin dependent kinase activity assay, phosphorylation of synthetic peptide PKTPKKAKKLRRR; type: biochemical; details: 0.1 mM ATP, read-out: CDK 2 Activity*
pIC50: −log10 of the molar value. Structures can show the parent of a compound that is named as a salt.
measure name: pIC50

See these solved cases before continuing.
molecule: NC(=S)N/N=C/c1cc(-c2ccc(O)c(O)c2)ccc1O
system: CDK2 complexed with cyclin A (Homo sapiens)
pIC50: > 6.30

molecule: Nc1nccc(-c2ccc(O)c(-c3ccnc(N)n3)c2)n1
system: CDK2 complexed with cyclin A (Homo sapiens)
pIC50: > 6.30

molecule: Nc1cc(-c2ccc(O)c(-c3ccnc(N)n3)c2)ccn1
system: CDK2 complexed with cyclin A (Homo sapiens)
pIC50: > 6.30

molecule: NC(=O)N/N=C/c1cc(-c2ccc(O)c(F)c2)ccc1O [Example 24, hydrochloride]
system: CDK2 complexed with cyclin A (Homo sapiens)
pIC50: > 6.30

molecule: Nc1nc(-c2cc(-c3ccc(O)cc3)ccc2O)cc(N2CCNCC2)n1
system: CDK2 complexed with cyclin A (Homo sapiens)
pIC50: < 5.30

input: Record request: pIC50 value, item NC(=S)N/N=C/c1cc2ccc(O)cc2cc1O
output: > 6.30

input: Record request: pIC50 value, item Nc1nc(-c2cc(-c3ccc(O)cc3)ccc2O)cc(N2CCOCC2)n1
output: > 6.30

input: Record request: pIC50 value, item Cc1cc(-c2cc(-c3ccnc(N)n3)ccc2O)nc(N)n1
output: > 6.30

input: Record request: pIC50 value, item Nc1cc(-c2cc(-c3ccc(O)cc3)ccc2O)nc(N)n1
output: > 6.30

input: Record request: pIC50 value, item NC(=S)N/N=C/c1cc(-c2ccc(O)c(F)c2)ccc1O
output: > 6.30

input: Record request: pIC50 value, item Nc1cccc(-c2ccc(O)c(-c3ccnc(N)n3)c2)n1
output: > 6.30

input: Record request: pIC50 value, item NC(=S)N/N=C/c1cc(-c2cccc(C(=O)O)c2)ccc1O
output: 5.70 to 6.30

input: Record request: pIC50 value, item Nc1nc(N)nc(-c2cc(-c3ccc(O)cc3)ccc2O)n1
output: > 6.30

input: Record request: pIC50 value, item Nc1nccc(-c2cc(-c3ccc(C=O)o3)ccc2O)n1
output: 5.70 to 6.30

input: Record request: pIC50 value, item Nc1nc(-c2cc(-c3ccc(O)cc3)ccc2O)cc(N2CCCC2CO)n1 (centres unmarked)
output: > 6.30

input: Record request: pIC50 value, item NC(=S)N/N=C/c1cc(-c2ccc(Cl)s2)ccc1O
output: 5.70 to 6.30

input: Record request: pIC50 value, item NC(=O)N/N=C/c1cc(Br)ccc1O [Example 3, hydrochloride]
output: 5.30 to 5.70

###

Entries and their measured pIC50 follow.
Biological target: CDK5 complexed with p25 (Homo sapiens)
Assay: Cyclin dependent kinase activity assay, phosphorylation of synthetic peptide PKTPKKAKKLRRR
Conditions: CDK5 complexed with p25, 0.1 mM ATP; read-out: CDK 5 Activity*
Experimental: The assay of cyclin dependent kinase activity was determined by monitoring the phosphorylation of a synthetic peptide, PKTPKKAKKLRRR. The assay mixture contained 0.1 mM cold ATP, ^33P-γ-ATP (2000-4000 cpm/μL), 0.1 mM peptide, 1 mM DTT, and 10 mM MgCl2 in 100 mM HEPES buffer pH 7.4. […] After addition of scintillation fluid to the sealed plate, phosphorylated peptide was quantified in a scintillation counter.
pIC50: −log10 of the molar value. Where a name gives a salt, the structure may show the parent alone.

input: Record request: pIC50 value, item Nc1ccc(-c2cc(-c3ccc(O)cc3)ccc2O)nc1 [Example 48]
output: > 6.30

input: Record request: pIC50 value, item NC(=O)N/N=C/c1cc(Br)ccc1O [Example 3, hydrochloride]
output: 5.70 to 6.30

input: Record request: pIC50 value, item NC(=O)N/N=C/c1cc(-c2cccc(C(=O)O)c2)ccc1O [Example 18, hydrochloride]
output: > 6.30

input: Record request: pIC50 value, item Nc1nccc(-c2cc(-c3c[nH]c(=O)[nH]c3=O)ccc2O)n1 [Example 70]
output: 5.30 to 5.70

input: Record request: pIC50 value, item Nc1nc(-c2cc(-c3ccc(O)cc3)ccc2O)cc(-c2ccccc2CO)n1 [Example 83]
output: > 6.30

input: Record request: pIC50 value, item NC(=S)N/N=C/c1cc(CCC(=O)O)ccc1O [Example 40]
output: > 6.30

input: Record request: pIC50 value, item NC(=S)N/N=C/c1cc(-c2ccc(C(=O)O)cc2)ccc1O [Example 19]
output: > 6.30

input: Record request: pIC50 value, item NC(=S)N/N=C/c1cc(-c2cccc(O)c2)ccc1O [Example 20]
output: > 6.30

input: Record request: pIC50 value, item Nc1nc(-c2cc(-c3ccc(O)cc3)ccc2O)cc(N2CCNCC2)n1 [Example 78]
output: > 6.30

input: Record request: pIC50 value, item NC(=S)N/N=C/c1cc(-c2ccccc2)ccc1O [Example 4]
output: > 6.30

input: Record request: pIC50 value, item Nc1nccc(-c2cc(-c3ccncc3)ccc2O)n1 [Example 62]
output: > 6.30

input: Record request: pIC50 value, item Nc1nc(-c2cccc([N+](=O)[O-])c2)cc(-c2cc(-c3ccc(O)cc3)ccc2O)n1 [Example 88]
output: > 6.30

input: Record request: pIC50 value, item Nc1nccc(-c2cc(-c3ccc4[nH]ccc4c3)ccc2O)n1 [Example 60]
output: > 6.30

input: Record request: pIC50 value, item NC(=O)N/N=C/c1cc(-c2ccc(O)c(F)c2)ccc1O [Example 24, hydrochloride]
output: > 6.30

input: Record request: pIC50 value, item NC(=S)N/N=C/c1cc(-c2cccc(F)c2)ccc1O [Example 15]
output: 5.70 to 6.30

input: Record request: pIC50 value, item Nc1cnc(-c2cc(-c3ccc(O)cc3)ccc2O)nc1N [Example 51]
output: > 6.30

input: Record request: pIC50 value, item NC(=S)N/N=C/c1cc(Br)ccc1O [Example 2, 5-Bromosalicylaldehyde thiosemicarbazone]
output: 5.70 to 6.30

###

target: CDK5 complexed with p25 (Homo sapiens); assay: Cyclin dependent kinase activity assay, phosphorylation of synthetic peptide PKTPKKAKKLRRR; conditions: CDK5 complexed with p25, 0.1 mM ATP; read-out: CDK 5 Activity*
Entries and their measured IC50 follow.

See these solved cases before continuing.
smiles input: Nc1cccc(-c2cc(-c3ccnc(N)n3)ccc2O)n1
IC50: < 500 nM
--
smiles input: N#Cc1cccc(-c2ccc(O)c(/C=N/NC(N)=S)c2)c1
IC50: 2000 to 5000 nM

input: Record request: IC50 value, item NC(=S)N/N=C/c1cc(-c2cccnc2)ccc1O
output: < 500 nM

input: Record request: IC50 value, item Nc1cccc(-c2ccc(O)c(-c3ccnc(N)n3)c2)n1
output: < 500 nM

input: Record request: IC50 value, item Nc1ccc(-c2ccc(O)c(-c3ccnc(N)n3)c2)cn1
output: 500 to 2000 nM

###

target: CDK5 complexed with p25 (Homo sapiens, UniProt Q00535); test: Cyclin dependent kinase activity assay, phosphorylation of synthetic peptide PKTPKKAKKLRRR; details: CDK5 complexed with p25, 0.1 mM ATP; read-out: CDK 5 Activity*
Sequence (Q00535 whole entry): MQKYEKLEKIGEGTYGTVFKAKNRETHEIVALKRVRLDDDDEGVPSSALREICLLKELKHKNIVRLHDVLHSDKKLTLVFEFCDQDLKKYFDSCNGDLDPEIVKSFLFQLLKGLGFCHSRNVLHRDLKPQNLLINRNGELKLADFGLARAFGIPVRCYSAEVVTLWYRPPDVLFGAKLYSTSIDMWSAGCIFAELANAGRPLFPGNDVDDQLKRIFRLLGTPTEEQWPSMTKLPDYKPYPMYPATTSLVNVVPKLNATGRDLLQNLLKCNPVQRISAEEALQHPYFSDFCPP
Sequence (Q15078 99-307 partner limits assumed): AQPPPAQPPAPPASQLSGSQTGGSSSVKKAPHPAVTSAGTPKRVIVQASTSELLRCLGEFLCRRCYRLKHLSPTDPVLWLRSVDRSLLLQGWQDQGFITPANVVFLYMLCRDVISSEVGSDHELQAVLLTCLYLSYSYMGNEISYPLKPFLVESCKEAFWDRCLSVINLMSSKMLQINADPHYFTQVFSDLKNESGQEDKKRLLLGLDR
Entries and their measured IC50 follow.

See these solved cases before continuing.
molecule: Nc1nccc(-c2ccc(O)c(-c3ccnc(N)n3)c2)n1
system: CDK5 complexed with p25 (Homo sapiens, UniProt Q00535)
measure name: IC50
reported: < 500 nM
//
molecule: Nc1nc(Cl)cc(-c2cc(-c3ccc(O)cc3)ccc2O)n1
system: CDK5 complexed with p25 (Homo sapiens, UniProt Q00535)
measure name: IC50
reported: < 500 nM
//
molecule: Nc1nc(-c2cc(-c3ccc(O)cc3)ccc2O)cc(N2CCCC(CO)C2)n1 (stereo not shown)
system: CDK5 complexed with p25 (Homo sapiens, UniProt Q00535)
measure name: IC50
reported: < 500 nM
//
molecule: Nc1nc(-c2ccc(CO)cc2)cc(-c2cc(-c3ccc(O)cc3)ccc2O)n1
system: CDK5 complexed with p25 (Homo sapiens, UniProt Q00535)
measure name: IC50
reported: < 500 nM
//
molecule: NC(=S)N/N=C/c1cc(-c2ccc(Cl)s2)ccc1O
system: CDK5 complexed with p25 (Homo sapiens, UniProt Q00535)
measure name: IC50
reported: > 5000 nM
//
molecule: Nc1nccc(-c2c(O)ccc3ccccc23)n1
system: CDK5 complexed with p25 (Homo sapiens, UniProt Q00535)
measure name: IC50
reported: 2000 to 5000 nM
//
molecule: Nc1nc(-c2cc(-c3ccc(O)cc3)ccc2O)cc(N2CCC[C@@H]2CO)n1
system: CDK5 complexed with p25 (Homo sapiens, UniProt Q00535)
measure name: IC50
reported: < 500 nM
//
molecule: NC(=S)N/N=C/c1cc(-c2cccs2)ccc1O
system: CDK5 complexed with p25 (Homo sapiens, UniProt Q00535)
measure name: IC50
reported: 500 to 2000 nM

input: Record request: IC50 value, item Nc1nccc(-c2cc(-c3ccc(O)c(F)c3)ccc2O)n1
output: < 500 nM

input: Record request: IC50 value, item COc1cc(-c2cc(-c3ccc(O)cc3)ccc2O)nc(N)n1
output: < 500 nM
